Reported Tmax is given for each of the following compounds.
test: Quantitative targeted LC-MS/MS pharmacokinetics of AR ingredients in rat plasma after oral MBST
Type: in vivo
conditionInfo: male, Sprague-Dawley, rat, in vivo, po, 2 g/kg
quantityName: Tmax (min)

compound=c1cc2c(cc1[C@H]1OC[C@H]3[C@@H]1CO[C@@H]3c1ccc3c(c1)OCO3)OCO2 numericresult=15
compound="c1cc2c(cc1[C@H]1OC[C@H]3[C@@H]1CO[C@H]3c1ccc3c(c1)OCO3)OCO2 [Asarinin, (−)-Asarinin]" numericresult=15

---

assayedSystem: human TRPV1 (Homo sapiens, UniProt Q8NER1)
Construct: Each full-length human TRPA1, TRPV1, TRPV4, and TRPM8 coding regions were introduced into a pcDNA4/TO vector; expressed in transfected cells; host or cells: T-REx-293 cells (tetracycline-induced, pcDNA4/TO vector)
Sequence (Q8NER1 whole entry): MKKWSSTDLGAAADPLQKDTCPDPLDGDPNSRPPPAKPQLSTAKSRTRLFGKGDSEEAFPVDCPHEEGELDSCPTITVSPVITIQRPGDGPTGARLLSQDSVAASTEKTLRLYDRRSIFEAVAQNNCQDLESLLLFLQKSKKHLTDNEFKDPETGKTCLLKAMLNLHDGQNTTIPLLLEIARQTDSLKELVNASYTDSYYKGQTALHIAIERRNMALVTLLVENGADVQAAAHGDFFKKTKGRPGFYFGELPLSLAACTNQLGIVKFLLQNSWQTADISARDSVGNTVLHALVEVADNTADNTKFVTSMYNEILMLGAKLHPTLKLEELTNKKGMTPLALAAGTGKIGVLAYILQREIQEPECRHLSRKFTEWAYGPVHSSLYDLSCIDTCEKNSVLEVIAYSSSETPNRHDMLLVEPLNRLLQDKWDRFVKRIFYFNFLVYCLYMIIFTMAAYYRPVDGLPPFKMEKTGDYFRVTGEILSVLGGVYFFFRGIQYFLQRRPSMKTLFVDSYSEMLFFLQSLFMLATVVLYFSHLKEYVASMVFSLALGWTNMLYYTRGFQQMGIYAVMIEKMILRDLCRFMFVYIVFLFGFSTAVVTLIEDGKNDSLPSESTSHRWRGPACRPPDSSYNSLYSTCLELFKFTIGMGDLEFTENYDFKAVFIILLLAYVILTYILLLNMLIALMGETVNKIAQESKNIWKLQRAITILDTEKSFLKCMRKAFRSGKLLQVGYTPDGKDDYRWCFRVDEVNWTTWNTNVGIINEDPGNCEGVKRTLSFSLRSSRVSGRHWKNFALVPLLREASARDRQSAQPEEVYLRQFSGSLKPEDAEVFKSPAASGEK
test: Ca2+ influx assay in TRPV1-expressing T-REx-293 cells
Assay type: cell-based
conditionInfo: T-REx-293; 10 µmol/L test compound; relative to 2 µmol/L capsaicin; read-out: % of Activation Compared to Positive Control against Each Subfamily of TRP Channel TRPV1
quantityName: activation at 10 µM (%)

compound="Oc1cc(O)c2c(c1)O[C@H](c1ccc(O)c(O)c1)[C@H](O)C2 [Epicatechin]" unitslabel=% numericresult=0
compound="C/C=C/C=C\\CC/C=C/C=C/C(=O)NCC(C)C [Amide A]" unitslabel=% numericresult=0.7
compound="CN[C@@H](C)[C@@H](O)c1ccccc1 [Pseudoephedrine, (S,S)-(+)-pseudoephedrine, reference compound]" unitslabel=% numericresult=-0.2
compound="c1cc2c(cc1[C@H]1OC[C@H]3[C@@H]1CO[C@H]3c1ccc3c(c1)OCO3)OCO2 [Asarinin, (−)-Asarinin]" unitslabel=% numericresult=-0.4

---

Reported % of Activation Compared to Positive Control against Each Subfamily of TRP Channel TRPA1 is given for each of the following molecules.
assayedSystem: human TRPA1 (Homo sapiens)
Construct: Each full-length human TRPA1, TRPV1, TRPV4, and TRPM8 coding regions were introduced into a pcDNA4/TO vector; expressed in transfected cells; host or cells: T-REx-293 cells (tetracycline-induced, pcDNA4/TO vector)
Sequence (O75762 whole entry): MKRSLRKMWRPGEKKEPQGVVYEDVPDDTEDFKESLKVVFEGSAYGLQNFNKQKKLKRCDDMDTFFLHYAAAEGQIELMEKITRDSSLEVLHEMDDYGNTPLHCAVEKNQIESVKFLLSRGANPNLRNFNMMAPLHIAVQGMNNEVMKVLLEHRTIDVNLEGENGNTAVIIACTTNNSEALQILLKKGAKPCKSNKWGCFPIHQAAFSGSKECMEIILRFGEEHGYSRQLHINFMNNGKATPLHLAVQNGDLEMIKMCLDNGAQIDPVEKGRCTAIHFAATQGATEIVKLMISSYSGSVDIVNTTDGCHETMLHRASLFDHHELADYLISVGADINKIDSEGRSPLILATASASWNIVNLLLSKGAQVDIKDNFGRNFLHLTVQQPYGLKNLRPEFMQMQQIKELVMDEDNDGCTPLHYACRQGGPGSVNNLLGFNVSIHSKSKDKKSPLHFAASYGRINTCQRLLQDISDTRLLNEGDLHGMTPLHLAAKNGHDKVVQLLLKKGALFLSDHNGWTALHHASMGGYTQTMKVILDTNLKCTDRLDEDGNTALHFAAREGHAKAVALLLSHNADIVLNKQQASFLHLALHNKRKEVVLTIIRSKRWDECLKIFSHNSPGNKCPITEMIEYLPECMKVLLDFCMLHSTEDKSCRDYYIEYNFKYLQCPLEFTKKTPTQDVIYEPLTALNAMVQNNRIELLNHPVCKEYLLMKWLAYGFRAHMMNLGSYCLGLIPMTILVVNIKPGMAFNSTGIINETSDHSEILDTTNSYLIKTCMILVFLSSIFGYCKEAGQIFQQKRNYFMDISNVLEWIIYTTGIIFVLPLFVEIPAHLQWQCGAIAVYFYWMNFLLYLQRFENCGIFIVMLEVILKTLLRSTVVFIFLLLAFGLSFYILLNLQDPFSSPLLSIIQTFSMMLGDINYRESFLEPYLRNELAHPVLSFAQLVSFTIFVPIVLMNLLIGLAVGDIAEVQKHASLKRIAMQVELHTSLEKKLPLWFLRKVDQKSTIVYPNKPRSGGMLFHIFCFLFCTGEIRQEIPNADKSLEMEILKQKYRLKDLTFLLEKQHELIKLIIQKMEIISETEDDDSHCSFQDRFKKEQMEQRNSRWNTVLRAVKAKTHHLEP
test: Ca2+ influx assay in TRPA1-expressing T-REx-293 cells
Format: cell-based
conditionInfo: 10 µmol/L test compound; relative to 20 µmol/L allyl isothiocyanate
quantityName: % of Activation Compared to Positive Control against Each Subfamily of TRP Channel TRPA1

molecule="C=C1[C@H]2C[C@@H]3[C@H]4N5C[C@@]6(C)[C@H]7[C@@H]5C[C@]3([C@@H]1O)[C@@](O)(C2)[C@]74C[C@@H](OC(=O)c1ccccc1)[C@@H]6O [Ignavine]" assayedsystem="human TRPA1 (Homo sapiens)" result=2%
molecule="CCN1C[C@]2(COC)[C@H](O)C[C@H](OC)[C@@]34[C@@H]5C[C@@]6(O)[C@H](OC(=O)c7ccccc7)[C@@H]5[C@@](O)([C@@H]([C@H](OC)[C@H]23)[C@@H]14)[C@@H](O)[C@@H]6OC [Benzoylaconitine]" assayedsystem="human TRPA1 (Homo sapiens)" result=3%
molecule="CCC(=O)c1cc2c(cc1OC)OCO2 [Methyl kakuol]" assayedsystem="human TRPA1 (Homo sapiens)" result=49%
molecule="O.Oc1cc(O)c2c(c1)O[C@H](c1ccc(O)c(O)c1)[C@@H](O)C2 [Catechin]" assayedsystem="human TRPA1 (Homo sapiens)" result=6%
molecule="O=c1cc(-c2ccc(O)cc2)oc2c([C@@H]3O[C@H](CO)[C@@H](O)[C@H](O)[C@H]3O)c(O)c([C@@H]3O[C@H](CO)[C@@H](O)[C@H](O)[C@H]3O)c(O)c12 [Vicenin-2]" assayedsystem="human TRPA1 (Homo sapiens)" result=25%
molecule="CC(C(O)c1ccccc1)[N+](C)(C)[O-] (stereo not drawn) [Methylephedrine N-oxide]" assayedsystem="human TRPA1 (Homo sapiens)" result=21%
